assay: Plasma stability, human plasma; assay type: in vitro ADME; conditions: 2 μM, 37° C.
Where a SMILES comes first, the peptide text is derived from it.
READOUT: half-life

Lookup result for CSCC[C@@H]1NC(=O)[C@H](C(C)C)NC(=O)[C@H](CC(=O)O)NC(=O)[C@H](CCC(=O)O)NC(=O)[C@H](CCC(=O)O)NC(=O)[C@H](Cc2c[nH]cn2)NC(=O)[C@H](CCC(=O)O)NC(=O)[C@H](C(C)C)NC(=O)[C@@H]2CCCN2C(=O)[C@H](CCC(=O)O)NC(=O)[C@H]([C@@H](C)O)NC1=O [Peptide P1, [MTEPVEHEEDV]] (cyclo(MTEPVEHEEDV)) ; measured half-life: > 289 min

----------
test: Plasma, whole brain and cerebrospinal fluid concentrations after SC or IV injection, LC MS/MS; assay type: in vivo, mouse; details: mouse, in vivo; IV delivery, saline; read-out: T½ in brain (converted)
Where a SMILES comes first, the peptide text is derived from it.
READOUT: half-life (min)
A number alone suffices; assume min.

Lookup result for CSCC[C@@H]1NC(=O)[C@H](C(C)C)NC(=O)[C@H](CC(=O)O)NC(=O)[C@H](CCC(=O)O)NC(=O)[C@H](CCC(=O)O)NC(=O)[C@H](Cc2c[nH]cn2)NC(=O)[C@H](CCC(=O)O)NC(=O)[C@H](C(C)C)NC(=O)[C@@H]2CCCN2C(=O)[C@H](CCC(=O)O)NC(=O)[C@H]([C@@H](C)O)NC1=O [Peptide P1, [MTEPVEHEEDV]] (cyclo(MTEPVEHEEDV)) ; measured half-life: 13.9

----------
experiment: Plasma binding, human plasma, ultracentrifugation; type: in vitro ADME; settings: read-out: compound unbound in plasma
Where a SMILES comes first, the peptide text is derived from it.
READOUT: fraction unbound at 30 min, 2 μM

Lookup result for CSCC[C@@H]1NC(=O)[C@H](C(C)C)NC(=O)[C@H](CC(=O)O)NC(=O)[C@H](CCC(=O)O)NC(=O)[C@H](CCC(=O)O)NC(=O)[C@H](Cc2c[nH]cn2)NC(=O)[C@H](CCC(=O)O)NC(=O)[C@H](C(C)C)NC(=O)[C@@H]2CCCN2C(=O)[C@H](CCC(=O)O)NC(=O)[C@H]([C@@H](C)O)NC1=O [Peptide P1, [MTEPVEHEEDV]] (cyclo(MTEPVEHEEDV)) ; measured fraction unbound at 30 min, 2 μM: > 0.75
